Can you tell me log10 of IC50 for the items I'm about to list?
# study_target: human P2X3 receptor (Homo sapiens (Human))
# Sequence (P56373 whole entry): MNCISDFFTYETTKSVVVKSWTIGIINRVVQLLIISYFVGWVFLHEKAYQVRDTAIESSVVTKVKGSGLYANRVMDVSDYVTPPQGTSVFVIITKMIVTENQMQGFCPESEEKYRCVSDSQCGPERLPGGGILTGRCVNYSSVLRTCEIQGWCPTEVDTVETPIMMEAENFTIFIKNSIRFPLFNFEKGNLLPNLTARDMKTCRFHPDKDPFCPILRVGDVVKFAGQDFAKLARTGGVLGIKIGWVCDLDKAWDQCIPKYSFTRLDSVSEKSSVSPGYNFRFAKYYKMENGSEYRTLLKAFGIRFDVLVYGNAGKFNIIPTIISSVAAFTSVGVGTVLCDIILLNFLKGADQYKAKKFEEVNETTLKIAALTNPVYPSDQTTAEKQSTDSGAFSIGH
# run_description: Evaluation of human P2X3 receptor inhibitory activity (Fluo-3 calcium fluorescence, FDSS 3000, ATP stimulation)
# Format: cell-based
# condition_summary: human P2X3 receptor, Test Example 1
Base-10 log of IC50, unit nM.

- compound: "CNC(=O)Cn1c(=O)[nH]/c(=N\\c2ccc(Oc3ncc(C)s3)cc2)n(Cc2ccc(Cl)cc2)c1=O [Compound I-2648]"
  study_target: "human P2X3 receptor (Homo sapiens (Human))"
  recorded_endpoint: "log10 of IC50"
  assay_value: 1.15
- compound: "Cn1c(=O)[nH]/c(=N\\c2ccc(Oc3cccc(C(=O)O)n3)cc2)n(Cc2ccc(Cl)cc2)c1=O [Compound I-2272]"
  study_target: "human P2X3 receptor (Homo sapiens (Human))"
  recorded_endpoint: "log10 of IC50"
  assay_value: 0.90
- compound: "Cc1nsc(Oc2ccc(/N=c3\\[nH]c(=O)n(CC(C)(CO)CO)c(=O)n3Cc3ccc(F)cc3)cc2)n1 [Compound I-2571]"
  study_target: "human P2X3 receptor (Homo sapiens (Human))"
  recorded_endpoint: "log10 of IC50"
  assay_value: 0.85
- compound: "Cn1c(=O)[nH]/c(=N\\c2ccc(Oc3cccc(C#N)n3)cc2)n(C[C@H]2CC[C@H](C)CC2)c1=O [Compound I-2446]"
  study_target: "human P2X3 receptor (Homo sapiens (Human))"
  recorded_endpoint: "log10 of IC50"
  assay_value: 0.00
- compound: "COc1ccc(Oc2ccc(/N=c3\\[nH]c(=O)n(CCC(=O)O)c(=O)n3Cc3ccc(Cl)cc3)cc2)cn1 [Compound I-1533]"
  study_target: "human P2X3 receptor (Homo sapiens (Human))"
  recorded_endpoint: "log10 of IC50"
  assay_value: 1.20

Hi there! I need log10 of IC50 for each item below, if you can.
1. COC(=O)/C=C/c1cccc(Oc2ccc(/N=c3\[nH]c(=O)n(C)c(=O)n3Cc3ccc(Cl)cc3)cc2)c1 [Compound I-2329]
2. COC(=O)[C@@H](C)Cn1c(=O)[nH]/c(=N\c2ccc(CC(C)C)cc2)n(Cc2ccc(C)cc2)c1=O [Compound I-0860]
3. O=c1[nH]/c(=N\c2ccc(Oc3cccc(F)n3)cc2)n(Cc2ccc(Cl)cc2)c(=O)n1CCO [Compound I-2516]

Response given:
1.85
1.79
0.95

Hi there! I need log10 of IC50 for each item below, if you can.
1. Cc1ccc(Cn2c(=O)n(C)c(=O)[nH]/c2=N\c2ccc(Oc3ccc(C#N)cn3)cc2)cc1 [Compound I-2393]
2. CCCOc1ccc(/N=c2\[nH]c(=O)n(CCCC(=O)O)c(=O)n2Cc2ccc(C)cc2)cc1Cl [Compound I-0873]

Response given:
[1.00, 1.67]

Hi there! I need log10 of IC50 for each item below, if you can.
1. CCOC(=O)Cn1c(=O)[nH]/c(=N\c2ccc(Oc3cccnn3)cc2)n(Cc2ccc(Cl)cc2)c1=O [Compound I-2658]
2. CC(C)(C)OC(=O)NCCn1c(=O)[nH]/c(=N\c2ccc(Oc3ccon3)cc2)n(Cc2ccc(Cl)cc2)c1=O [Compound I-2522]

Response given:
[0.70, 1.04]

* * *

# study_target: human P2X3 receptor (Homo sapiens (Human))
# run_description: Evaluation of human P2X3 receptor inhibitory activity (Fluo-3 calcium fluorescence, FDSS 3000, ATP stimulation)
# Type: cell-based
# condition_summary: C6BU-1 cells stably expressing human P2X3 receptor, Fluo-3 fluorescence, FDSS 3000
recorded_endpoint: pIC50
One number for each entry, as −log10 of the molar value.

The cases that follow already have their pIC50 on record.
- structure_smiles: "CCC(CC)Oc1ccc(/N=c2\\[nH]c(=O)n(CCC(=O)O)c(=O)n2Cc2ccc(C)cc2)cc1"
  study_target: "human P2X3 receptor (Homo sapiens (Human))"
  pIC50: 6.95
- structure_smiles: "CCOC(=O)C1(Cn2c(=O)[nH]/c(=N\\c3ccc(OCC(C)C)cc3)n(Cc3ccc(Cl)cc3)c2=O)CC1"
  study_target: "human P2X3 receptor (Homo sapiens (Human))"
  pIC50: 7.82
- structure_smiles: "CCCOc1ccc(/N=c2\\[nH]c(=O)n(CC3(C(=O)OCC)CC3)c(=O)n2Cc2ccc(C)cc2)cc1"
  study_target: "human P2X3 receptor (Homo sapiens (Human))"
  pIC50: 8.00
- structure_smiles: "C=C(C)c1ccc(Cn2c(=O)n(C[C@H](C)C(=O)O)c(=O)[nH]/c2=N\\c2ccc(OC(C)C)c(C)c2)cc1"
  study_target: "human P2X3 receptor (Homo sapiens (Human))"
  pIC50: 6.53
- structure_smiles: "C[C@@H](C(=O)O)[C@H](C)n1c(=O)[nH]/c(=N\\c2ccc3nc(C(F)(F)F)[nH]c3c2)n(Cc2ccc(Cl)cc2)c1=O"
  study_target: "human P2X3 receptor (Homo sapiens (Human))"
  pIC50: 6.42

Hi there! I need pIC50 for each item below, if you can.
1. Cc1ccc(Cn2c(=O)n(C[C@H](C)C(N)=O)c(=O)[nH]/c2=N\c2ccc(CC(C)C)c(Cl)c2)cc1
2. Cc1cc(Oc2ccc(/N=c3\[nH]c(=O)n(C[C@H](C)C(=O)O)c(=O)n3Cc3ccc(Cl)cc3)cc2)no1
3. Cc1cc(/N=c2\[nH]c(=O)n(CC3(CC(=O)O)CC3)c(=O)n2Cc2ccc(Cl)cc2)ccc1OC(C)C
4. CCc1oc2ccc(/N=c3\[nH]c(=O)n(CC(C)(C)C(=O)OC)c(=O)n3Cc3ccc(Cl)cc3)cc2c1C
5. CC(C)n1c(=O)nc(Nc2ccc3oc(=O)[nH]c3c2)n(Cc2ccc(Cl)cc2)c1=O
6. CCn1c(=O)[nH]/c(=N\c2ccc(Oc3ccc(NC(C)=O)cc3)cc2)n(Cc2ccc(Cl)cc2)c1=O
7. CC[C@@H](C)Oc1ccc(/N=c2\[nH]c(=O)n(CCCO)c(=O)n2Cc2ccc(Cl)cc2)cc1Cl
8. CC[C@H](C)Oc1ccc(/N=c2\[nH]c(=O)n(C[C@H](C)C(=O)O)c(=O)n2Cc2ccc(C)cc2)cc1Cl

Response given:
8.15
7.96
7.77
7.74
6.02
8.22
8.15
7.77

Hi there! I need pIC50 for each item below, if you can.
1. CCCc1nc2ccc(/N=c3\[nH]c(=O)n([C@@H](C)[C@@H](C)C(=O)O)c(=O)n3Cc3ccc(Cl)cc3)cc2s1
2. C[C@@H](Cn1c(=O)[nH]/c(=N\c2ccc(OC(F)F)cc2)n(Cc2ccc(Cl)cc2)c1=O)C(=O)O

Response given:
7.70
6.75

Hi there! I need pIC50 for each item below, if you can.
1. COC(=O)[C@@H](C)Cn1c(=O)[nH]/c(=N\c2ccc(O[C@H](C)C(F)(F)F)cc2)n(Cc2ccc(Cl)cc2)c1=O
2. CCc1nc2ccc(/N=c3\[nH]c(=O)n(CCO)c(=O)n3Cc3ccc(Cl)cc3)cc2s1
3. Cc1nc2ccc(/N=c3\[nH]c(=O)n(CC(C)(CO)CO)c(=O)n3Cc3ccc(Cl)cc3)cc2s1
4. COC(=O)C(C)(C)Cn1c(=O)[nH]/c(=N\c2ccc3nc(C)sc3c2)n(Cc2ccc(Cl)cc2)c1=O
5. Cc1ccc(Cn2c(=O)n(C[C@H](C)C(=O)O)c(=O)[nH]/c2=N\c2ccc(Oc3ccccc3)cc2)cc1

Response given:
1. 7.66
2. 8.10
3. 8.30
4. 8.40
5. 7.62

Hi there! I need pIC50 for each item below, if you can.
1. Cc1ccc(Cn2c(=O)n(C[C@H](C)C(=O)O)c(=O)[nH]/c2=N\c2ccc(Oc3ccncc3)cc2)cc1
2. COC(=O)[C@@H](C)Cn1c(=O)[nH]/c(=N\c2ccc(OCC3CC3)c(Cl)c2)n(Cc2ccc(C)cc2)c1=O

Response given:
8.10
7.52

Hi there! I need pIC50 for each item below, if you can.
1. C[C@@H](Cn1c(=O)[nH]/c(=N\c2ccc(C=C3CCCC3)cc2)n(Cc2ccc(Cl)cc2)c1=O)C(=O)O
2. COC(=O)Cn1c(=O)[nH]/c(=N\c2ccc(Oc3ccc(OC)nc3)cc2)n(Cc2ccc(Cl)cc2)c1=O
3. COC(=O)[C@@H](C)Cn1c(=O)[nH]/c(=N\c2ccc(OC(F)(F)F)cc2)n(Cc2ccc(C)cc2)c1=O
4. CCn1c(=O)[nH]/c(=N\c2ccc(Oc3ccnc(C)c3)cc2)n(Cc2ccc(Cl)cc2)c1=O
5. COC(=O)[C@@H](C)Cn1c(=O)[nH]/c(=N\c2ccc(N3CCCC3)cc2)n(Cc2ccc(C)cc2)c1=O

Response given:
1. 7.15
2. 8.05
3. 6.76
4. 8.30
5. 6.54

* * *

# study_target: UniProtKB P56373
# run_description: Evaluation of human P2X3 receptor inhibitory activity (Fluo-3 calcium fluorescence, FDSS 3000, ATP stimulation);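 also: stimulus was 50 nM ATP with fluorescence followed for 3 min, and the response per well was peak post-ATP fluorescence divided by the reading at measurement start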
# Format: cell-based
# condition_summary: human P2X3 receptor, Test Example 1
pIC50: −log10 of the molar value.
Classify by measured pIC50: yes if it is equal to or exceeds 8, no if it is smaller.

Observe how each entry below is paired with its result.
- structure_smiles: "Cc1nnc(Oc2ccc(/N=c3\\[nH]c(=O)n(C[C@H](O)CO)c(=O)n3Cc3ccc(Cl)cc3)cc2)s1"
  class_name: "no"
- structure_smiles: "Cn1c(=O)[nH]/c(=N\\c2ccc(Oc3ncc(C(N)=O)s3)cc2)n(Cc2ccc(Cl)cc2)c1=O"
  class_name: "yes"
- structure_smiles: "Cc1ccc(Cn2c(=O)n(C[C@H](C)C(=O)O)c(=O)[nH]/c2=N\\c2ccc(CC(C)C)c(Cl)c2)cn1"
  class_name: "no"

API: the following record is the query input.
Challenge: Reported pIC50 at or above 8? CC1(Cn2c(=O)[nH]/c(=N\c3ccc(Oc4ccon4)cc3)n(Cc3ccc(Cl)cc3)c2=O)COC(C)(C)OC1
Response given: yes
